All figures here come from ChEMBL document CHEMBL4765295.

Tested on: Rattus norvegicus
Test description: Antiinflammatory activity in Wistar rat model of carrageenan-induced paw edema assessed as reduction in thickness of paw edema at 10 mg/kg, ip pretreated for 1 hr followed by carrageenan challenge and measured after 4 hrs (reference value: 1.40 +/-0.10 mm)
Assay type: functional
Experimental setup: time 5 hrs
Quantity kind: log10 of Activity (log10 of the value in mm)

Compound	log10 of Activity
COc1cc(/C=C/C(=O)/C=C(O)/C=C/c2ccc(OC(=O)[C@@H](NC(=O)OCC3c4ccccc4-c4ccccc43)C(C)C)c(OC)c2)ccc1OC(=O)[C@@H](NC(=O)OCC1c2ccccc2-c2ccccc21)C(C)C	-0.18
COc1cc(/C=C/C(=O)/C=C(O)/C=C/c2ccc(OC(=O)[C@H](CCSC)NC(=O)OCC3c4ccccc4-c4ccccc43)c(OC)c2)ccc1OC(=O)[C@H](CCSC)NC(=O)OCC1c2ccccc2-c2ccccc21	-1.52
COc1cc(/C=C/C(=O)/C=C(O)/C=C/c2ccc(OC(=O)C(C)NC(=O)OC(C)(C)C)c(OC)c2)ccc1OC(=O)C(C)NC(=O)OC(C)(C)C (stereo unspecified)	-0.08
COc1cc(/C=C/C(=O)/C=C(O)/C=C/c2ccc(OC(=O)[C@H](C)NC(=O)OCC3c4ccccc4-c4ccccc43)c(OC)c2)ccc1OC(=O)[C@H](C)NC(=O)OCC1c2ccccc2-c2ccccc21	-0.21
COc1cc(/C=C/C(=O)/C=C(O)/C=C/c2ccc(OC(=O)[C@@H](N)C(C)C)c(OC)c2)ccc1OC(=O)[C@@H](N)C(C)C.Cl.Cl	-0.12
COc1cc(/C=C/C(=O)/C=C(O)/C=C/c2ccc(OC(=O)[C@@H](N)CCSC)c(OC)c2)ccc1OC(=O)[C@@H](N)CCSC.Cl.Cl	-1.40
COc1cc(/C=C/C(=O)/C=C(O)/C=C/c2ccc(OC(=O)CNC(=O)OCC3c4ccccc4-c4ccccc43)c(OC)c2)ccc1OC(=O)CNC(=O)OCC1c2ccccc2-c2ccccc21	-0.54
COc1cc(/C=C/C(=O)/C=C(O)/C=C/c2ccc(OC(=O)CCN)c(OC)c2)ccc1OC(=O)CCN.Cl.Cl	-0.80
COc1cc(/C=C/C(=O)/C=C(O)/C=C/c2ccc(OC(=O)[C@H](CC(C)C)NC(=O)OCc3ccccc3)c(OC)c2)ccc1OC(=O)[C@H](CC(C)C)NC(=O)OCc1ccccc1	0.10
COc1cc(/C=C/C(=O)/C=C(O)/C=C/c2ccc(OC(=O)[C@@H](N)Cc3ccccc3)c(OC)c2)ccc1OC(=O)[C@@H](N)Cc1ccccc1.Cl.Cl	-0.66
CC[C@H](C)[C@H](NC(=O)OC(C)(C)C)C(=O)Oc1ccc(/C=C/C(=O)/C=C(O)/C=C/c2ccc(OC(=O)[C@@H](NC(=O)OC(C)(C)C)[C@@H](C)CC)c(OC)c2)cc1OC	-0.16

---

Test description: Ulcerogenic activity in fasted albino mouse assessed as incidence of gastric ulceration at 10 mg/kg, po for 3 days (reference value: 0 %)
Format: toxicity, organism-based
Experimental setup: in vivo, 72 h, time 3 day

Compound	Unit name	Activity
COc1cc(/C=C/C(=O)/C=C(O)/C=C/c2ccc(OC(=O)[C@@H](C)N)c(OC)c2)ccc1OC(=O)[C@@H](C)N.Cl.Cl	%	0
COc1cc(/C=C/C(=O)/C=C(O)/C=C/c2ccc(OC(=O)[C@H](CCSC)NC(=O)OC(C)(C)C)c(OC)c2)ccc1OC(=O)[C@H](CCSC)NC(=O)OC(C)(C)C	%	0
COc1cc(/C=C/C(=O)/C=C(O)/C=C/c2ccc(OC(=O)CN)c(OC)c2)ccc1OC(=O)CN.Cl.Cl	%	0
COc1cc(/C=C/C(=O)/C=C(O)/C=C/c2ccc(OC(=O)[C@@H](CCSC)NC(=O)OC(C)(C)C)c(OC)c2)ccc1OC(=O)[C@@H](CCSC)NC(=O)OC(C)(C)C	%	0
COc1cc(/C=C/C(=O)CC(=O)/C=C/c2ccc(O)c(OC)c2)ccc1O	%	3.33
COc1cc(/C=C/C(=O)/C=C(O)/C=C/c2ccc(OC(=O)C(C)NC(=O)OCc3ccccc3)c(OC)c2)ccc1OC(=O)C(C)NC(=O)OCc1ccccc1 (stereo unspecified)	%	3.33
COc1cc(/C=C/C(=O)/C=C(O)/C=C/c2ccc(OC(=O)CCN)c(OC)c2)ccc1OC(=O)CCN.Cl.Cl	%	0
COc1cc(/C=C/C(=O)/C=C(O)/C=C/c2ccc(OC(=O)[C@H](N)CCSC)c(OC)c2)ccc1OC(=O)[C@H](N)CCSC.Cl.Cl	%	0
COc1cc(/C=C/C(=O)/C=C(O)/C=C/c2ccc(OC(=O)[C@@H](N)CCSC)c(OC)c2)ccc1OC(=O)[C@@H](N)CCSC.Cl.Cl	%	0
COc1cc(/C=C/C(=O)/C=C(O)/C=C/c2ccc(OC(=O)[C@@H](CCSC)NC(=O)OCc3ccccc3)c(OC)c2)ccc1OC(=O)[C@@H](CCSC)NC(=O)OCc1ccccc1	%	0
COc1cc(/C=C/C(=O)/C=C(O)/C=C/c2ccc(OC(=O)[C@H](CCSC)NC(=O)OCc3ccccc3)c(OC)c2)ccc1OC(=O)[C@H](CCSC)NC(=O)OCc1ccccc1	%	3.33
COc1ccc2c(c1)c(CC(=O)O)c(C)n2C(=O)c1ccc(Cl)cc1	%	10
CC(C)Cc1ccc(C(C)C(=O)O)cc1 (stereo unspecified)	%	3.33
COc1cc(/C=C/C(=O)/C=C(O)/C=C/c2ccc(OC(=O)[C@@H](C)NC(=O)OCc3ccccc3)c(OC)c2)ccc1OC(=O)[C@@H](C)NC(=O)OCc1ccccc1	%	0
COc1cc(/C=C/C(=O)/C=C(O)/C=C/c2ccc(OC(=O)[C@H](CCSC)NC(=O)OCC3c4ccccc4-c4ccccc43)c(OC)c2)ccc1OC(=O)[C@H](CCSC)NC(=O)OCC1c2ccccc2-c2ccccc21	%	0
COc1cc(/C=C/C(=O)/C=C(O)/C=C/c2ccc(OC(=O)CNC(=O)OCC3c4ccccc4-c4ccccc43)c(OC)c2)ccc1OC(=O)CNC(=O)OCC1c2ccccc2-c2ccccc21	%	0

---

Tested on: Rattus norvegicus
Test description: Anti-inflammatory activity in Wistar rat assessed as inhibition of carrageenan-induced paw edema at 10 mg/kg, ip pretreated for 1 hr followed by carrageenan challenge and measured after 3 hr relative to control (reference value: 0.00 +/-0.1 %)
Assay type: functional
Experimental setup: time 4 hrs
The following molecules are listed with their measured inhibition in vivo at 10 mg/kg values.
Quantity kind: inhibition in vivo at 10 mg/kg

Molecule	Measured result
COc1cc(/C=C/C(=O)/C=C(O)/C=C/c2ccc(OC(=O)CCN)c(OC)c2)ccc1OC(=O)CCN.Cl.Cl	77%
COc1cc(/C=C/C(=O)/C=C(O)/C=C/c2ccc(OC(=O)[C@H](CC(C)C)NC(=O)OCc3ccccc3)c(OC)c2)ccc1OC(=O)[C@H](CC(C)C)NC(=O)OCc1ccccc1	10%
COc1cc(/C=C/C(=O)/C=C(O)/C=C/c2ccc(OC(=O)C(C)NC(=O)OCc3ccccc3)c(OC)c2)ccc1OC(=O)C(C)NC(=O)OCc1ccccc1 (stereo unspecified)	97%
COc1cc(/C=C/C(=O)CC(=O)/C=C/c2ccc(O)c(OC)c2)ccc1O	75%
COc1cc(/C=C/C(=O)/C=C(O)/C=C/c2ccc(OC(=O)[C@H](CCC(N)=O)NC(=O)OC(C)(C)C)c(OC)c2)ccc1OC(=O)[C@H](CCC(N)=O)NC(=O)OC(C)(C)C	32%
COc1cc(/C=C/C(=O)/C=C(O)/C=C/c2ccc(OC(=O)[C@H](C)NC(=O)OCc3ccccc3)c(OC)c2)ccc1OC(=O)[C@H](C)NC(=O)OCc1ccccc1	22%

---

Entries and their UI
Test description: Ulcerogenic activity in fasted albino mouse assessed as ulcer index in gastric mucosa at 10 mg/kg, po for 3 days (reference value: 0)
Assay type: toxicity, organism-based
Experimental setup: in vivo, 72 h, time 3 day
Quantity kind: UI

Molecule	Measured result
COc1cc(/C=C/C(=O)/C=C(O)/C=C/c2ccc(OC(=O)C(C)NC(=O)OCc3ccccc3)c(OC)c2)ccc1OC(=O)C(C)NC(=O)OCc1ccccc1 (centres undefined)	4.67
COc1cc(/C=C/C(=O)/C=C(O)/C=C/c2ccc(OC(=O)[C@@H](CCSC)NC(=O)OC(C)(C)C)c(OC)c2)ccc1OC(=O)[C@@H](CCSC)NC(=O)OC(C)(C)C	0
COc1cc(/C=C/C(=O)/C=C(O)/C=C/c2ccc(OC(=O)[C@H](CCSC)NC(=O)OC(C)(C)C)c(OC)c2)ccc1OC(=O)[C@H](CCSC)NC(=O)OC(C)(C)C	0
COc1cc(/C=C/C(=O)/C=C(O)/C=C/c2ccc(OC(=O)[C@@H](C)N)c(OC)c2)ccc1OC(=O)[C@@H](C)N.Cl.Cl	0
COc1cc(/C=C/C(=O)/C=C(O)/C=C/c2ccc(OC(=O)CCN)c(OC)c2)ccc1OC(=O)CCN.Cl.Cl	0
COc1cc(/C=C/C(=O)/C=C(O)/C=C/c2ccc(OC(=O)CNC(=O)OCC3c4ccccc4-c4ccccc43)c(OC)c2)ccc1OC(=O)CNC(=O)OCC1c2ccccc2-c2ccccc21	0
COc1ccc2c(c1)c(CC(=O)O)c(C)n2C(=O)c1ccc(Cl)cc1	13.67
COc1cc(/C=C/C(=O)/C=C(O)/C=C/c2ccc(OC(=O)[C@H](CCSC)NC(=O)OCc3ccccc3)c(OC)c2)ccc1OC(=O)[C@H](CCSC)NC(=O)OCc1ccccc1	3.99
COc1cc(/C=C/C(=O)/C=C(O)/C=C/c2ccc(OC(=O)[C@@H](N)CCSC)c(OC)c2)ccc1OC(=O)[C@@H](N)CCSC.Cl.Cl	0
